Origin of measurements: ChEMBL document CHEMBL3875153

// reported IC50 at 72 h for each item listed
- Assay remarks: Cytotoxicity against human GES-1 cells assessed as growth inhibition after 72 hrs by CCK8 assay
- Format: toxicity, cell-based, GES1
- Setup conditions: human, GES-1 cells
Answer with a number only, understood to be in µM.

Illustrative cases are given below, each with its answer.
>>> df
                                   compound  unit_spec  observed_measurement
0  O=C(Cn1cc(CN2C(=O)C(=O)c3c(Cl)ccc(Cl)c32)nn1)OC1CCCCC1         µM                    36
1  CC(C)(C)OC(=O)N1CCN(C(=O)Cn2cc(CN3C(=O)C(=O)c4c(Cl)ccc(Cl)c43)nn2)CC1         µM                  84.2
2    O=c1[nH]cc(F)c(=O)[nH]1 [FLUOROURACIL]         µM                  13.8

(Q) Given the entry `O=C1C(=O)N(Cc2cn(CC(=O)N3CCCC3)nn2)c2c(Cl)ccc(Cl)c21` , report its measured IC50 at 72 h.
(A) 88.7

###

Overview of recorded IC50 for various compounds
- Assay remarks: Cytotoxicity against human MGC803 cells assessed as growth inhibition after 72 hrs by CCK8 assay
- Type: functional, cell-based, MGC-803
- Setup conditions: Homo sapiens, MGC-803, 72 h; read-out: IC50
A number alone suffices; assume µM.

(Q) Return reported IC50; argument: `O=C(Cn1cc(CN2C(=O)C(=O)c3c(Cl)ccc(Cl)c32)nn1)NC1CCCCC1`
(A) 17.4

(Q) Quick check: IC50 of `CC(C)(C)OC(=O)N1CCN(C(=O)Cn2cc(CN3C(=O)C(=O)c4c(Cl)ccc(Cl)c43)nn2)CC1` ?
(A) 22

(Q) Dear colleague, I am looking for the recorded IC50 of the following compound: `O=C1C(=O)N(Cc2cn(CC(=O)N3CCCC3)nn2)c2c(Cl)ccc(Cl)c21`
(A) 14.8

(Q) Reported IC50 for O=c1[nH]cc(F)c(=O)[nH]1 [FLUOROURACIL] : what is it?
(A) 10.6

(Q) Dear colleague, I am looking for the recorded IC50 of the following compound: `O=C1C(=O)N(Cc2cn(CC(=O)N3CCCCC3)nn2)c2c(Cl)ccc(Cl)c21`
(A) 18.7

(Q) Could you share which IC50 value was measured for `O=C1C(=O)N(Cc2cn(CC(=O)N3CCOCC3)nn2)c2c(Cl)ccc(Cl)c21` ?
(A) 51.7

(Q) If you can, please state the reported IC50 value of `O=C(Cn1cc(CN2C(=O)C(=O)c3c(Cl)ccc(Cl)c32)nn1)Nc1ccccc1` .
(A) 17.5

(Q) If you can, please state the reported IC50 value of `O=C(Cn1cc(CN2C(=O)C(=O)c3c(Cl)ccc(Cl)c32)nn1)OC1CCCCC1` .
(A) 9.78

###

# key: entry, value: IC50 at 72 h
- Assay remarks: Cytotoxicity against human GES-1 cells assessed as growth inhibition after 72 hrs by CCK8 assay
- Format: toxicity, cell-based, GES1
- Setup conditions: human, GES-1 cells
Number only, in µM; omit the unit.

Worked examples follow.
                              smiles_record  measurement_type  unit_spec  observed_measurement
0  O=C1C(=O)N(Cc2cn(CC(=O)N3CCCCC3)nn2)c2c(Cl)ccc(Cl)c21      IC50 at 72 h         µM                  50.7
1  O=C(Cn1cc(CN2C(=O)C(=O)c3c(Cl)ccc(Cl)c32)nn1)Nc1ccccc1      IC50 at 72 h         µM                  24.9

Now let's try a different one.
(Q) Requested field: IC50 at 72 h. Item: `O=C(Cn1cc(CN2C(=O)C(=O)c3c(Cl)ccc(Cl)c32)nn1)NC1CCCCC1`
(A) 47.4
